Target: LRRK2 G2019S (Homo sapiens, UniProt Q5S007, G2019S)
Sequence (Q5S007 whole entry G2019S): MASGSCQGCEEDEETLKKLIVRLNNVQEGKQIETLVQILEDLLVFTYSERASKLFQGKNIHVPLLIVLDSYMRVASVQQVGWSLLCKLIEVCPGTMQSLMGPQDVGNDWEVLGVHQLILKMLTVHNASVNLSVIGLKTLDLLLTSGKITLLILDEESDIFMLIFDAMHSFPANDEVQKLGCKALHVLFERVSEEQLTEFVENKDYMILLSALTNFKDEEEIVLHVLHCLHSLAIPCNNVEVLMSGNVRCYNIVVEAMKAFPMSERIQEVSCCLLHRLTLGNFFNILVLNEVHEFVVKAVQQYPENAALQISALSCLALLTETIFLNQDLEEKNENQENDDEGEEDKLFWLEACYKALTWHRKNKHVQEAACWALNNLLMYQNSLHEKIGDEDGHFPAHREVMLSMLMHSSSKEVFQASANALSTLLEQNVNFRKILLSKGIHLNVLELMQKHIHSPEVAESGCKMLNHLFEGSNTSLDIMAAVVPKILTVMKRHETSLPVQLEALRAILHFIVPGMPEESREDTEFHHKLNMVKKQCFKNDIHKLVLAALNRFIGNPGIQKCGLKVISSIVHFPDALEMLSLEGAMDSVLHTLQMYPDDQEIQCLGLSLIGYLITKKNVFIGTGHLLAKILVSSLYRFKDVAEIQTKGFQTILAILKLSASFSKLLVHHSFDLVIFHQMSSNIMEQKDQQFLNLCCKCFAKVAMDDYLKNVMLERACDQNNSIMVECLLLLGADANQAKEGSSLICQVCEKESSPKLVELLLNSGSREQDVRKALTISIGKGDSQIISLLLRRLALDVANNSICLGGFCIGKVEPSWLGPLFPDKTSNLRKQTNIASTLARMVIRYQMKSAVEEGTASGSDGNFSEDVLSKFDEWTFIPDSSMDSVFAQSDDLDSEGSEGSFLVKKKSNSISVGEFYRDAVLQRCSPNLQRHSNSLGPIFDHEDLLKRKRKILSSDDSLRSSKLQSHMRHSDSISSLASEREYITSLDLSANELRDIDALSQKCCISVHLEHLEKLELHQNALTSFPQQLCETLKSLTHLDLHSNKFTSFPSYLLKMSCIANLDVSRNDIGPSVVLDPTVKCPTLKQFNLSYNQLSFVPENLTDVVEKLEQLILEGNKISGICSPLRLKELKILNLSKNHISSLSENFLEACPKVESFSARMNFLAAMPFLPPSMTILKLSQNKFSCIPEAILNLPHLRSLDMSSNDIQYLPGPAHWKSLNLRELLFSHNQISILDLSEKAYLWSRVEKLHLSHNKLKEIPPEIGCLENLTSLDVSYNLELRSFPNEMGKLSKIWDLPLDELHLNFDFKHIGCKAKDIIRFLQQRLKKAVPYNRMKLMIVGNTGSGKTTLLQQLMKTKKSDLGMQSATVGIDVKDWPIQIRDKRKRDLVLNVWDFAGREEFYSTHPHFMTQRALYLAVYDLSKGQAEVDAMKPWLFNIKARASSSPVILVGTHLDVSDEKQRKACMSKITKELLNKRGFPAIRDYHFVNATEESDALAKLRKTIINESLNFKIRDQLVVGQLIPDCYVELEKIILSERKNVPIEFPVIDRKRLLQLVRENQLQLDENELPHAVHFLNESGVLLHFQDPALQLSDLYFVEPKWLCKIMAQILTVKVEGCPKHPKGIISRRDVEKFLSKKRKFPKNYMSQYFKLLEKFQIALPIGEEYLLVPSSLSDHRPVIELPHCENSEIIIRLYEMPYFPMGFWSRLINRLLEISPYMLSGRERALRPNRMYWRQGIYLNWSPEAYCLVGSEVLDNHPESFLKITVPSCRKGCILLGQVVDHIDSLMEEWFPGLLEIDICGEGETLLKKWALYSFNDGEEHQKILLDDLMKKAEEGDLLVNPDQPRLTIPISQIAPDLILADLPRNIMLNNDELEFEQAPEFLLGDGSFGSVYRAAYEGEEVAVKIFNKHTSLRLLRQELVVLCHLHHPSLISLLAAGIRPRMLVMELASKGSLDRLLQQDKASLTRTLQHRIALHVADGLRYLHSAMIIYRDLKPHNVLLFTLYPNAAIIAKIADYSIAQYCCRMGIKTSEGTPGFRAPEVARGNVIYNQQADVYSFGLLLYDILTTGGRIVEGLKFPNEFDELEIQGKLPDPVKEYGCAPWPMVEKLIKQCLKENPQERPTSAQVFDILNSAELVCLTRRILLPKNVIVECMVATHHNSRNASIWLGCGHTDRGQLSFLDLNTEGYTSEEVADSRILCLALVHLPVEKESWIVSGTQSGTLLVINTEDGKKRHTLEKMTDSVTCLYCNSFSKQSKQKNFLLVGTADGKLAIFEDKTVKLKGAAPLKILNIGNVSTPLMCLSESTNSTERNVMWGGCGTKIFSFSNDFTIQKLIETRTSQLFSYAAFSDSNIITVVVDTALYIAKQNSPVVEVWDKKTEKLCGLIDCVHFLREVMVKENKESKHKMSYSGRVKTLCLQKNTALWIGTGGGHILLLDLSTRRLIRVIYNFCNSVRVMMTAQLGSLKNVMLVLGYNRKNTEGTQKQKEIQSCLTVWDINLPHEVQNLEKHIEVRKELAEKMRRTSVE
Test: LRRK2 G2019S Km ATP LanthaScreen assay
Assay type: biochemical
Details: read-out: LRRK2 pIC50 (converted)
We begin with a simple list: items and their reported IC50.
Provide the reading as a plain figure in nM.

CC(C)c1cc2cc(NC(=O)C3CC3c3cnn(C)c3)ncc2cc1Cl (stereo not drawn) [Ex-21.1]	0.0813
CC1(N2CCC(c3cc4cc(NC(=O)C5C6CCOCC65)ncc4cc3Cl)CC2)COCC1F (single isomer, unassigned) [Ex-6.41]	0.0813
CC1(N2CCC(c3cc4cc(NC(=O)Cc5ccccn5)ncc4cc3Cl)CC2)COCC1O (stereo not drawn) [Ex-3.6]	0.24
COC1CC(C(=O)Nc2cc3cc(C4(C#N)CC45CC5)ccc3cn2)C1 (single isomer, unassigned) [Ex-1.4]	3.63
CC1C(C(=O)Nc2cc3cc(C4CCN(C5(C)COCC5O)CC4)c(Cl)cc3cn2)C12CCOCC2 (single isomer, unassigned) [Ex-10.6]	11
CCC1C(C(=O)Nc2cc3cc(C(C)CC#N)c(Cl)cc3cn2)C1c1cnn(C)c1 (single isomer, unassigned) [Ex-9.16]	1.82

Quickly give me recorded IC50 for O=C(C[C@@H](O)C(F)(F)F)Nc1cc2cc(C3CCN(C4COC4)CC3)c(Cl)cc2cn1 [Ex-1.35] 26.3

Quickly give me recorded IC50 for CC(C)(O)C1CC1C(=O)Nc1cc2cc(C3CCN(C4(C)CCOC4)CC3)c(Cl)cc2cn1 (single isomer, unassigned) [Ex-6.13] 5.89

Quickly give me recorded IC50 for O=C(Nc1cc2cc(C3CCN(C4COC4)CC3F)c(Cl)cc2cn1)C1CC1 (single isomer, unassigned) [Ex-14.1] 5.89

Quickly give me recorded IC50 for CC1(N2CCC(c3cc4cc(NC(=O)C5CC5c5ccco5)ncc4cc3Cl)CC2)COCC1O (single isomer, unassigned) [Ex-4.65] 0.708

Quickly give me recorded IC50 for CC1(C(=O)Nc2cc3cc(C4CCN(C5COC5)CC4)c(Cl)cc3cn2)CC1 [Ex-7.3] 16.6

Quickly give me recorded IC50 for CC(C)N1CCOC(CC(=O)Nc2cc3cc(C4(C#N)CC45CC5)ccc3cn2)C1 (single isomer, unassigned) [Ex-1.46] 13.8
